Documented Population across a set of binders
system_under_test: human MyD88 (human) (UniProt Q99836)
assay: P8 phage display panning on plate-immobilised MyD88, after round 4, NGS
Numbers only; they are read as %.

Example results:
INSERT INTO results (binder, observation_type, unit_descriptor, quantitative_readout) VALUES
  ('HWIDWEYFVGIEDHIK', 'Population', '%', 1.32),
  ('SPQEQDGFWVRLIEAL', 'Population', '%', 0.71),
  ('DPQDLDWFYERLVSLL', 'Population', '%', 5.06),
  ('DWVWDYLLPNLEGPAG', 'Population', '%', 7.47),
  ('DWVWEHFFPMEEKDQT', 'Population', '%', 0.59);

Consider the additional binder presented here.
Exercise: Look up and state reported Population for DSLFWDRLLYSLHVTE
Solution: 2.92
